Reference for the values: patent US20260027121A1

Target: A3 adenosine receptor (hA3AR) (Homo sapiens, UniProt P0DMS8)
Sequence (P0DMS8 1-318): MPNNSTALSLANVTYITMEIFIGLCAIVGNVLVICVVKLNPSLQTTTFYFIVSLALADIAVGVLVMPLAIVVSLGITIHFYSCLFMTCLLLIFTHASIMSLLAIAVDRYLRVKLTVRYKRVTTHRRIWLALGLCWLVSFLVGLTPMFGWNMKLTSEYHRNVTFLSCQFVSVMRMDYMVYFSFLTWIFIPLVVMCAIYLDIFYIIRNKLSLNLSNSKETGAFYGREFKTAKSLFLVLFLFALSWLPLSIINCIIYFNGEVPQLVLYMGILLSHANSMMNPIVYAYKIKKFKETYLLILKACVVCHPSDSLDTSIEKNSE
Measured Quantity: log10(Ki) (log10 of the value in nM)

{"Mol": "CCC#Cc1nc(N)c2ncn([C@@H]3SC[C@@H](O)[C@H]3O)c2n1", "log10(Ki)": 1.83}
{"Mol": "CC#Cc1nc(NCc2cccc(F)c2)c2ncn([C@@H]3SC[C@@H](O)[C@H]3O)c2n1", "log10(Ki)": 1.48}
{"Mol": "CC#Cc1nc(NCc2cccc(I)c2)c2ncn([C@@H]3SC[C@@H](O)[C@H]3O)c2n1", "log10(Ki)": 1.30}
{"Mol": "CC#Cc1nc(NCc2cccc(Br)c2)c2ncn([C@@H]3SC[C@@H](O)[C@H]3O)c2n1", "log10(Ki)": 1.05}
{"Mol": "CC#Cc1nc(N)c2ncn([C@@H]3SC[C@@H](O)[C@H]3O)c2n1", "log10(Ki)": 1.81}
{"Mol": "CCC#Cc1nc(NCc2cccc(Br)c2)c2ncn([C@@H]3SC[C@@H](O)[C@H]3O)c2n1", "log10(Ki)": -0.53}
